// provenance: patent US20150197568A1

# target_under_test: Mature human IL-6 (human, UniProt P05231 30-212)
# Sequence (P05231 30-212): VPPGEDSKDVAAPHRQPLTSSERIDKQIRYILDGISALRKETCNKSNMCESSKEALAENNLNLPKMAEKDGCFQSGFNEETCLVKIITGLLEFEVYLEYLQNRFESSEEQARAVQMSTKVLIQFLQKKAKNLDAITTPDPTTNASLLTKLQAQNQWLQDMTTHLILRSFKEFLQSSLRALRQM
# test_protocol: cell-based or functional assay
Threshold 10 nM. IC50, TF-1 Proliferation Assay below it: class 1. IC50, TF-1 Proliferation Assay at it or above: class 0.

{"columns": ["binder", "qualitative_label"],
 "data": [
  ["Antibody 2 IgG (antibody, V domains shown, Non-germlined; also called Ab 2) VH: EVQLVQSGGGLIQPGGSLRLSCAASGFTISSNYMTWVRQAPGKGLEWVSDLYYYAGDTYYADSVRGRFTMSRDISKNTVYLQMDSLRAEDTGVYYCARWADGHYYYIDVWGGGTLVTVSS VL: DIVMTQSPSTLSASVGDRVTITCRASQGISSWLTWYQQKPGRAPKVLIYKASTLESGVPSRFSGSGSGTDFTLTISSLQPEDFATYYCQQSYSAPWTFGQGTKLELKR", "class 1"],
  ["Antibody 3 scFv (scFv, V domains shown, Non-germlined; also called Ab 3; not shown: scFv linker, domain order and any purification tags) VH: QVQLVQSGGGLIQPGGSLRLSCAASGFTISSNYMVWVRQAPGKGLEWVSDLYYYAGDTYYADSVKGRFTVSRDISKNTVYLQMNSLRAEDTGVYYCARWADDHYYHIDVWGRGTLVTVSS VL: DIVMTQSPSTLSASVGDRVTITCRASQGISSWLAWYQQKPGRAPKALIYKASTLESGVPSRFSGSGSGTDFTLTISSLQPEDFATYYCQQSYSTPWTFGQGTKLEIKR", "class 1"],
  ["Antibody 4 IgG (antibody, V domains shown, Non-germlined; IgG1 with human heavy chain and kappa constant domains; also called Ab 4) VH: EVQLVQSGGGLIQPGGSLRLSCAASGFTVSSNYMTWVRQAPGKGLEWVSDLYYYAGDTYYADSVKGRFTMSRDISKNTVYLQMNSLRAEDTGVYYCARWADGHYYYADVWGRGTLVSVSS VL: DIVMTQSPSTLSASVGDRVTITCRASQGISSWLAWYQQKPGRAPKVLIYKASTLESGVPSRFSGSGSGTDFTLTISSLQPEDFASYYCQQSYSAPWTFGQGTKLELKR", "class 1"],
  ["Antibody 5 scFv (scFv, V domains shown, Non-germlined; also called Ab 5; not shown: scFv linker, domain order and any purification tags) VH: EVQLVQSGGGLIQPGGSLRLSCAASGFTISSNYMIWVRQAPGKGLEWVSDLYYYAGDTYYADSVKGRFTMSRDISKNTVYLQMNSLRAEDTGVYYCARWADGHYYYADVWGRGTLVSVSS VL: DIVMTQSPPTLSASVGDRVTITCRASQGISSWLAWYQQKPGRAPKVLIYKASTLESGVPSRFSGSGSGTDFTLTISSLQPEDFASYYCQQSYSAPWTFGQGTKLEIKR", "class 0"]
]}

Next item in the queue.
Request: API: query returns whether the binder falls strictly under 10 nM in IC50, TF-1 Proliferation Assay. Query: Antibody 4 scFv (scFv, V domains shown, Non-germlined; also called Ab 4; not shown: scFv linker, domain order and any purification tags) VH: EVQLVQSGGGLIQPGGSLRLSCAASGFTVSSNYMTWVRQAPGKGLEWVSDLYYYAGDTYYADSVKGRFTMSRDISKNTVYLQMNSLRAEDTGVYYCARWADGHYYYADVWGRGTLVSVSS VL: DIVMTQSPSTLSASVGDRVTITCRASQGISSWLAWYQQKPGRAPKVLIYKASTLESGVPSRFSGSGSGTDFTLTISSLQPEDFASYYCQQSYSAPWTFGQGTKLELKR
Response: class 0
